- Experimental Details: Caco-2 cell permeability assay
- Format: in vitro ADME, human
- Condition: human, Caco-2, apical to basolateral, 60 min, 37° C.
Measured Parameter: Papp A→B at 60 min, 10 μM

CC[C@@H](NC(=O)N1C(=O)[C@H](Cc2ccnc(N)c2)[C@H]1C(=O)N(C)c1ccn(C)n1)C1CCCCC1 [Compound 1-47] :: < 10 ×10⁻⁶ cm/s
CC[C@@H](NC(=O)N1C(=O)[C@H](Cc2cc(C)nc(N)c2)[C@H]1C(=O)N(C)c1nccn1C)c1cccc(Cl)c1 [Compound 1-43] :: < 10 ×10⁻⁶ cm/s
CC[C@@H](NC(=O)N1C(=O)[C@H](Cc2ccnc(N)c2)[C@H]1C(=O)N(C)c1cn(C)cn1)c1ccccc1 [Compound 1-90] :: < 10 ×10⁻⁶ cm/s
CC[C@@H](NC(=O)N1C(=O)[C@H](Cc2cc(C)nc(N)c2)[C@H]1C(=O)N(C)c1nccn1C)c1ccccc1 [Compound 1-51] :: < 10 ×10⁻⁶ cm/s
CC[C@@H](NC(=O)N1C(=O)[C@H](Cc2ccnc(N)c2)[C@H]1C(=O)N(C)c1ccnn1C)c1cccc(Cl)c1 [Compound 1-4] :: 11 to 30 ×10⁻⁶ cm/s

Attention now turns to another entry.
Prompt: Which value of Papp A→B at 60 min, 10 μM has been reported for CC[C@@H](NC(=O)N1C(=O)[C@H](Cc2ccnc(N)c2)[C@H]1C(=O)N(C)c1cnn(C)c1)c1ccccc1 [Compound 1-88] in the records?
Response: < 10 ×10⁻⁶ cm/s

From: patent US11691962B2
